Experiment: Pharmacokinetic evaluation in rats after IV and PO administration
Assay type: in vivo
Conditions: rat, plasma; male SD rats, IV (1 mg/kg), PO (10 mg/kg); read-out: Bioavailability F (%)
MEASUREMENT NAME: bioavailability (%)
Numeric answer only, unit % assumed.

The compound Cc1c(CN2c3c(F)cc(F)cc3OCC2CC(N)=O)ccc2c1NC(=O)CO2 (single isomer, unassigned) [Compound 42a] showed bioavailability equal to 34.6

----------
Experiment: Pharmacokinetic evaluation in rats after IV and PO administration
Assay type: in vivo
Conditions: rat, plasma; male SD rats, PO (100 mg/kg); read-out: Area under plasma concentration-time curve AUC0-last PO
Experimental: SD rats (male, 7-9 weeks old, Beijing Vital River Laboratory Animal Technology Co., Ltd.) Pharmacokinetic characteristics of the compounds after intravenous injection (IV) and oral administration (PO) in rodents were tested by a standard scheme. The rats were subjected to intravenous injection and oral administration once in the experiment. The vehicle for the intravenous injection was water. […]
MEASUREMENT NAME: AUC(0-t)
# number then unit; no other words

| COMPOUND | AUC(0-t) |
| --- | --- |
| Cc1noc(C[C@H]2COc3cc(F)ccc3N2Cc2ccc3c(c2C)NC(=O)CO3)n1 [Compound 36] | 29.9 µM·h |

Continue with the next compound.
Lookup result for Cc1c(CN2c3ccc(F)cc3OC[C@@H]2Cc2nnn(C)n2)ccc2c1NC(=O)CO2 [Compound 37] ; measured AUC(0-t): 116 µM·h

----------
Test: Pharmacokinetic evaluation in rats after IV and PO administration
Type: in vivo
Conditions: rat, plasma; male SD rats, IV (1 mg/kg); read-out: Clearance CL
Method: SD rats (male, 7-9 weeks old, Beijing Vital River Laboratory Animal Technology Co., Ltd.) Pharmacokinetic characteristics of the compounds after intravenous injection (IV) and oral administration (PO) in rodents were tested by a standard scheme. The rats were subjected to intravenous injection and oral administration once in the experiment. The vehicle for the intravenous injection was water. […]
The following compounds are listed with their measured clearance values.
Only the number, expressed in mL/min/kg, is required.

| COMPOUND | UNIT SYMBOL | clearance |
| --- | --- | --- |
| Cc1noc(C[C@H]2COc3cc(F)ccc3N2Cc2ccc3c(c2C)NC(=O)CO3)n1 [Compound 36] | mL/min/kg | 82.6 |
| Cc1c(CN2c3c(F)cc(F)cc3OCC2CC(N)=O)ccc2c1NC(=O)CO2 (single isomer, unassigned) [Compound 42a] | mL/min/kg | 24.4 |

With those in mind, consider the next compound.
Value of measured clearance for the entry Cc1c(CN2c3ccc(F)cc3OC[C@@H]2Cc2nnn(C)n2)ccc2c1NC(=O)CO2 [Compound 37] : 47.9

----------
Target: MR (Homo sapiens)
Sequence (P08235 726-984 limits assumed): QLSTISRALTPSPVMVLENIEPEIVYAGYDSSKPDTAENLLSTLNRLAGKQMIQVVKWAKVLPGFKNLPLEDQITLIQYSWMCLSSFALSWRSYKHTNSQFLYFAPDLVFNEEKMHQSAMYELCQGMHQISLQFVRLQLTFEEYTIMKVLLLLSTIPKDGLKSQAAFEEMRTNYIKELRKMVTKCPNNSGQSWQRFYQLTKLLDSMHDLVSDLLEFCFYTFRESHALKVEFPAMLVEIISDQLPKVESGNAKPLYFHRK
Experiment: In vitro evaluation of MR antagonistic activity (HEK293/Gal4/MR cell line, Bright Glo)
Assay type: cell-based
Conditions: HEK293/Gal4/MR cells, aldosterone final 1 nmol, 24 h incubation
From the text: Purpose of Experiment: to assay the MR antagonistic activity of the compounds […] The compounds to be tested were serially 5-fold diluted to the 8th concentration point with a multi-channel pipette, and the compound concentration ranged from 2 mmol to 0.026 mol. […] Readings were taken immediately on the EnVision multi-marker analyzer. […]
Label key: class 1 means IC50 under 80 nM; class 0 means IC50 of 80 nM or more.

| COMPOUND | LABEL |
| --- | --- |
| [2H]C([2H])([2H])c1noc(C[C@H]2COc3cc(F)ccc3N2Cc2ccc3c(c2)NC(=O)CO3)n1 [Compound 28] | class 1 |
| CNC(=O)CC1COc2cc(F)ccc2N1Cc1cc(Cl)c2c(c1)NC(=O)CO2 (stereo not drawn) [Compound 4] | class 0 |
| Cc1noc(C[C@H]2COc3cc(F)ccc3N2Cc2cc(F)c3c(c2)NC(=O)CO3)n1 [Compound 18] | class 1 |
| Cc1c(CN2c3c(F)cc(F)cc3OCC2CC(N)=O)ccc2c1NC(=O)CO2 (single isomer, unassigned) [Compound 42a] | class 1 |
| Cc1noc(C[C@H]2COc3cc(F)ccc3N2Cc2ccc3c(c2C)NC(=O)CO3)n1 [Compound 36] | class 1 |
| Cc1noc(C[C@H]2COc3cc(F)ccc3N2Cc2ccc3c(c2F)NC(=O)CO3)n1 [Compound 22] | class 1 |

Now consider the entry below.
**Q:** Is it true that IC50 reported for Cn1nnc(C[C@H]2COc3cc(F)ccc3N2Cc2cc(Cl)c3c(c2)NC(=O)CO3)n1 [Compound 26] is less than 80 nM?
**A:** class 1
